Biological target: Glutamate [NMDA] receptor
Assay: In vitro inhibitory activity against [3H](+)-MK-801 binding to PCP receptor in guinea pig brain membrane homogenates
Assay type: cell membranes, Cavia porcellus
Measurement label: IC50

Here is how some molecules turned out for IC50.
- Molecule: "CC1(C)C2CCC1(C)C(/N=C(\\N)Nc1ccccc1I)C2 (stereo unspecified)"
  Measurement label: "IC50"
  Result: "> 10 µM"
- Molecule: "N=C(Nc1ccccc1/C=C/c1c(F)c(F)c(F)c(F)c1F)NC12CC3CC(CC(C3)C1)C2"
  Measurement label: "IC50"
  Result: "> 10 µM"
- Molecule: "N=C(NC1CC2CCC1C2)NC1CC2CCC1C2 (stereo unspecified)"
  Measurement label: "IC50"
  Result: "> 10 µM"

Input line: Return reported IC50; argument: `CCc1ccccc1N=C(N)Nc1ccccc1CC`
Output line: 0.82 µM

Input line: Now the same for `CCCCCCCCN=C(NC1CCCCC1)NC1CCCCC1`
Output line: > 10 µM

Input line: Now the same for `CC(C)(C)/N=C(\N)Nc1ccccc1I`
Output line: > 9.6 µM

Values were extracted from ChEMBL document CHEMBL1125137.
